assayed_target: PI3K (Homo sapiens, UniProt P48736)
Construct: PI3 Kinase γ IC50; other: PI3 Kinase γ; other: PI3 Kinase γ isoform, fluorescence polarization
Sequence (P48736 whole entry, canonical isoform): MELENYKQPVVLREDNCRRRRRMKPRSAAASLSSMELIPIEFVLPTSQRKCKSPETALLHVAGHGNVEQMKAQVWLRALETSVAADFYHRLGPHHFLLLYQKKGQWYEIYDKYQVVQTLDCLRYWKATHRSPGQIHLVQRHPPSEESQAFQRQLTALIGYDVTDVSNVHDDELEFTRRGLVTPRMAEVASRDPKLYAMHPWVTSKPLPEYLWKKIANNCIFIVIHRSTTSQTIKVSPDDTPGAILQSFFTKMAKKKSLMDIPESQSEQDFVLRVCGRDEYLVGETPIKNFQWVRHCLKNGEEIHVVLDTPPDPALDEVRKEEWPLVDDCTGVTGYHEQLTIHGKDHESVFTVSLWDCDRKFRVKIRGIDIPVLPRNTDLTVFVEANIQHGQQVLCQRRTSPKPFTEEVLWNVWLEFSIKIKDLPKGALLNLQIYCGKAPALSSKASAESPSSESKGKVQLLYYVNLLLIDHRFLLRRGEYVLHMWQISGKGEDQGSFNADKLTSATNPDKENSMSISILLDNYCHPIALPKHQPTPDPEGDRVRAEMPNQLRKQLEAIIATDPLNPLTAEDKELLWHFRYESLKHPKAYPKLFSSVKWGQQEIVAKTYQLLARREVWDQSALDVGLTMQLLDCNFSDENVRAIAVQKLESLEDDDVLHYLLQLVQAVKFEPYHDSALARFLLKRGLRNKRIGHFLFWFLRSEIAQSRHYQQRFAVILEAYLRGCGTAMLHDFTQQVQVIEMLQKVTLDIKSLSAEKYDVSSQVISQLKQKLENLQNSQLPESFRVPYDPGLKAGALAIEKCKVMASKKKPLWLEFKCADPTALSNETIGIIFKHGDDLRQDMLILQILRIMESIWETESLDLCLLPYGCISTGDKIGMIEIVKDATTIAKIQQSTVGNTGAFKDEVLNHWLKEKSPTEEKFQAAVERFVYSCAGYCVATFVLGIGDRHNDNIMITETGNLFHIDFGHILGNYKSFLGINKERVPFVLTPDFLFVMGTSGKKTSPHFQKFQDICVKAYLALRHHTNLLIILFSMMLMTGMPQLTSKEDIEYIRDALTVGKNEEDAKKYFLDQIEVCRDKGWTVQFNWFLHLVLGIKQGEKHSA
test_protocol: Fluorescence polarization assay for PI3K
Format: biochemical
protocol_conditions: PI3 Kinase γ isoform, fluorescence polarization; read-out: PI3 Kinase γ IC50
Field: pIC50. Provide a value for each of the compounds that follow.
One number for each entry, as −log10 of the molar value.

Known pIC50 results, listed for orientation:
compound | pIC50
CNC(=O)Nc1ccc(-c2nc(N3CC4CCC(C3)O4)c3cnn(C4CCC(N5CCCC5)CC4)c3n2)cc1 (stereo not shown) [Example 331] | 5.27
O=C(Nc1ccc(-c2nc(N3CC4CCC(C3)O4)c3cnn(C4CCC5(CC4)OCCO5)c3n2)cc1)Nc1cccnc1 [Example 376] | 5.39
CCn1nc(-c2cccnc2)c2c(N3CC4CCC(C3)O4)nc(-c3ccc(NC(=O)NC)cc3)nc21 [Example 349] | 5.30
CCNC(=O)Nc1ccc(-c2nc(N3C4CCC3COC4)c3cnn(C4CCN(C(=O)OC)CC4)c3n2)cc1 [Example 357] | 5.04

Problem: GET /values?readout=pIC50&item= O=C(Nc1ccc(-c2nc(N3C[C@@H]4C[C@H]3CO4)c3cnn(CC(F)(F)F)c3n2)cc1)NC1CC1 [Example 296]
Solution: 5.97

###

assayed_target: PI3K (Homo sapiens, UniProt P42336)
Construct: PI3 Kinase α IC50; other: PI3 Kinase α; other: PI3 Kinase α isoform, fluorescence polarization
Sequence (P42336 whole entry, canonical isoform): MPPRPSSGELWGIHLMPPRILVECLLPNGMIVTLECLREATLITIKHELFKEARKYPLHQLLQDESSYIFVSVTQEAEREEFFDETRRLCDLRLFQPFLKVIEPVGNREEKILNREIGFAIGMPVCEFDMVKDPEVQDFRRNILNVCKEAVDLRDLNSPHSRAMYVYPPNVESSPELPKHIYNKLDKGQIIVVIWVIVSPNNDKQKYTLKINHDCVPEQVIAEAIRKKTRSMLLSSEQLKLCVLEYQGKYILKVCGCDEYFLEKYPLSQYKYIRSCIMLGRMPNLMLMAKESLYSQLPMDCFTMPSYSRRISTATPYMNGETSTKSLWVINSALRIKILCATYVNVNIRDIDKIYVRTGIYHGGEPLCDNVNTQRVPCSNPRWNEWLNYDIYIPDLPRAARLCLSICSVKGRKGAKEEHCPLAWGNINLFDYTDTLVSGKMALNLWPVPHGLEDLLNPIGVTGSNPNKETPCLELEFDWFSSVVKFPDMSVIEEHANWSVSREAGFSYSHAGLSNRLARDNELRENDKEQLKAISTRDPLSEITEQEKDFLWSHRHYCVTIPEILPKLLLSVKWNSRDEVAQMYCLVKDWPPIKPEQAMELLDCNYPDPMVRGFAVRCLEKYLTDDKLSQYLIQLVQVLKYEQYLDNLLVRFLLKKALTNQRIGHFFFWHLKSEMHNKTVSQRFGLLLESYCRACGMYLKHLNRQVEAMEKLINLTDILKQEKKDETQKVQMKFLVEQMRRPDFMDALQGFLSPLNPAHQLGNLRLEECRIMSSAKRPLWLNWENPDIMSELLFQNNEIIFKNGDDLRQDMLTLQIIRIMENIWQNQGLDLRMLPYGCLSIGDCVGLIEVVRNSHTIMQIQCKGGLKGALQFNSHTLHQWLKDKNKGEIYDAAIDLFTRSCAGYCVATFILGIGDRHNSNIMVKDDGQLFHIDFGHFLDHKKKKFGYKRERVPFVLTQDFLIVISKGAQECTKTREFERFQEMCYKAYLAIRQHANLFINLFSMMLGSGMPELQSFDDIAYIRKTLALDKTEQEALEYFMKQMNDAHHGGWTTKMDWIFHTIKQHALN
test_protocol: Fluorescence polarization assay for PI3K
Type: biochemical
protocol_conditions: PI3 Kinase α; read-out: PI3 Kinase α IC50
outcome_measure: pIC50
Answers are plain numbers, as −log10 of the molar value.

compound | assayed_target | pIC50
COC(=O)Nc1ccc(-c2nc(N3CC4CCC(C3)O4)c3cnn(C)c3n2)cc1 [Example 60] | PI3K (Homo sapiens, UniProt P42336) | 5.48
CCn1ncc2c(N3CC4CCC(C3)O4)nc(-c3ccc(NC(=O)NC4CC4)cc3)nc21 [Example 43] | PI3K (Homo sapiens, UniProt P42336) | 5.75
CNC(=O)Nc1ccc(-c2nc(N3CC4CCC(C3)O4)c3cnn(C(C)C)c3n2)cc1 [Example 139] | PI3K (Homo sapiens, UniProt P42336) | 6.63
O=C(Nc1ccc(-c2nc(N3CC4CCC(C3)O4)c3cnn(CCO)c3n2)cc1)Nc1ccc(N2CCOCC2)cc1 [Example 204] | PI3K (Homo sapiens, UniProt P42336) | 6.56
O=C(Nc1ccc(CO)cc1)Nc1ccc(-c2nc(N3C[C@@H]4C[C@H]3CO4)c3cnn(CC(F)(F)F)c3n2)cc1 [Example 294] | PI3K (Homo sapiens, UniProt P42336) | 6.66

State recorded pIC50 for all listed compounds.
1. Cn1ncc2c(N3CC4CCC(C3)O4)nc(-c3ccc(NC(=O)Nc4ccccc4)cc3)nc21 [Example 55]
2. CC(C)(C)n1ncc2c(N3CC4CCC(C3)O4)nc(-c3ccc(NC(=O)OCCO)cc3)nc21 [Example 98]
3. CN1CCN(CCNC(=O)Nc2ccc(-c3nc(N4CC5CCC(C4)O5)c4cnn(C5CCC6(CC5)OCCO6)c4n3)cc2)CC1 [Example 134]
4. O=C(Nc1ccc(-c2nc(N3CC4CCC(C3)O4)c3cnn(C4CCN(CC(F)(F)F)CC4)c3n2)cc1)NC1CC1 [Example 265]
5. N#CCCn1ncc2c(N3CC4CCC(C3)O4)nc(-c3ccc(NC(=O)Nc4ccc(N5CCOCC5)cc4)cc3)nc21 [Example 221]
6. CC(C)C(=O)N1CCC(n2ncc3c(N4CC5CCC(C4)O5)nc(-c4ccc(NC(=O)Nc5ccccc5)cc4)nc32)CC1 [Example 87]

Solution:
[7.13, 5.85, 5.61, 5.46, 6.35, 6.40]

State recorded pIC50 for all listed compounds.
1. CCn1ncc2c(N3CC4CCC(C3)O4)nc(-c3ccc(NC(=O)Nc4ccc(OCCO)nc4)cc3)nc21 [Example 282]
2. COC(=O)N1CCC(n2ncc3c(N4CC5CCC(C4)O5)nc(-c4ccc(NC(=O)NCCN)cc4)nc32)CC1 [Example 168]

Solution:
6.78
6.66

State recorded pIC50 for all listed compounds.
1. CN(C)CCn1ncc2c(N3CC4CCC(C3)O4)nc(-c3ccc(NC(=O)Nc4ccc(CO)cc4)cc3)nc21 [Example 163]
2. O=C(Nc1ccc(CCO)cc1)Nc1ccc(-c2nc(N3C4CCC3COC4)c3cnn(CC(F)(F)F)c3n2)cc1 [Example 272]

Solution:
1. 7.37
2. 6.88
